# measurement target: T1, T2+EW (Homo sapiens, UniProt A*02:01)
# T1 construct: on the surface of T2 cells; irrelevant control peptide; also called EW peptide/HLA-A*02:01 complex on T2 cells; T2 pulsed with EW peptide
# test protocol: flow cytometry, phage on T2 + EW peptide; secondary only 113, unstained 94.7
measurement name: Median:FITC-A

Clone #10 (scFv, also called EXT017-10; EXT017-10 scFv phage clone) scFv (VL-linker-VH-His/HA tag): QAVLTQPPSASGTPGQRVTISCSGGSSNIGVNPVNWYQQLPGTAPKLLIFANYQRPSGVPDRFSGSKSGTSASLAISGLQSDDEAHYYCSTWDDSLNAWLFGGGTKLTVLGSRGGGGSGGGGSGGGGSLEMAEVQLVQSGAEVKKPGDSLRISCQGSGYSFTSYYISWVRQMPGKGLEWMGNIDPSDSYTNYSPSFQGHVTMSVDKSISTAYLQWSSLKASDIAIYYCVRHGFSNSPRLWFDTWGQGTLVTVSSTSGQAGQHHHHHHGAYPYDVPDYAS :: 151
EXT017-9 scFv phage clone (scFv, also called phage clone #9) scFv: QSALTQPASASGSPGQSVTISCTGTSSDVGGYNYVSWYQQHPGKAPKLMIYEVSKRPSGVPDRFSGSKSGNTASLTVSGLQAEDEADYYCSSYAGSNNVVFGGGTKLTVLGSRGGGGSGGGGSGGGGSLEMAEVQLVQSGAEVKKPGASVKISCKASRYTFTNYYIHWVRQAPGQGLEWMGIINPSGGSTTYPQNFQGRLTMTRDTSTSTVYMELSSLRSEDTAMYYCARGWSGYDPGDFWGQGTLVTVSSTSGQAGQHHHHHHGAYPYDVPDYAS :: 151
EXT017-11 scFv phage clone (scFv, also called phage clone #11) scFv: NFMLTQPHSVSESPGKTVTISCTRSSGSIASNYVQWYQQRPGSAPTTVIYEDNQRPSGVPDRFSGSIDSSSNSASLTISGLKTEDEADYYCQSYDTNNYGVIFGGGTKLTVLGSRGGGGSGGGGSGGGGSLEMAQMQLVQSGAEVKKPGASVKVSCKTSGYTFNNYYMHWVRQAPGQGLEWMGIINPSGGSTNYAQKFQGRVTMTRDTSTSTVYMELSSLRSEDTAVYYCARSFDKQDIDYWGQGTLVTVSSTSGQAGQHHHHHHGAYPYDVPDYAS :: 143
EXT017-21 scFv phage clone (scFv, also called phage clone #21) scFv: SYELTQPPSVSVAPGQTASMTCGGNNIGSKSVHWYQQKPSQAPVMVVHDDSERPSGIPERISGSKSGNTATLTISRVEAGDEADYYCQVWDSSSDHVIFGGGTKLTVLGSRGGGGSGGGGSGGGGSLEMAQVQLVQSGAEVKKPGASVKVSCKASGYTFTNYYIHWVRQAPGQGLEWMGIIRPSGGITNYAQKFQGRVSMTRDTSTSTVYMELSSLRSEDTAVYYCARSWMSDSYYDGWGQGTLVTVSSTSGQAGQHHHHHHGAYPYDVPDYAS :: 143
Clone #24 (scFv, also called EXT017-24; EXT017-24 scFv phage clone) scFv (VL-linker-VH-His/HA tag): QAVLTQPPSVSAAPGQKVTISCSGSSSNIGNNYVSWYQQLPGTAPKLLIYDNNKRPSGLPDRFSGSKSGTSATLGITGLQTGDEADYYCGTWDSSLNAVVFGGGTQLTVLSSRGGGGSGGGGSGGGGSLEMAQVQLVQSGAEVKKPGASVKVSCKASGYTFTNYYIHWVRQAPGQGLEWMGIIRPSGGITNYAQKFQGRVTMTRDTSTSTVYMELSSLRSEDTAVYYCARSWSNKLSWYNDGWGQGTLVTVSSTSGQAGQHHHHHHGAYPYDVPDYAS :: 141
Clone #5 (scFv, also called EXT017-5; EXT017-5 scFv phage clone) scFv (VL-linker-VH-His/HA tag): QSALTQPPSASGSPGQSVTISCTGTSSDVGGYNYVSWYQQHPGKAPKLMIYEVSKRPSGVPDRFSGSKSGNTASLTVSGLQAEDEADYYCSSYAGSNTHVVFGGGTKLTVLGSRGGGGSGGGGSGGGGSLEMAEVQLVQSGAEVKKPGASVKISCKASRYTFTNYYIHWVRQAPGQGLEWMGIINPSGGSTTYPQNFQGRLTMTRDTSTSTVYMELSSLRSEDTAMYYCARGWSGYDPGDFWGQGTLVTVSSTSGQAGQHHHHHHGAYPYDVPDYAS :: 149
Clone #23 (scFv, also called EXT017-23; EXT017-23 scFv phage clone) scFv (VL-linker-VH-His/HA tag): SYELTQPPSVSVAPGQTAWITCGGNNIGSKSVHWYQQKPGQAPILVVYDDSDRPSGIPERVSGSNSGNTATLTISRVEAGDEADYYCQVWDSSSDRWVFGGGTKLTVLGSRGGGGSGGGGSGGGGSLEMAQMQLVQSGAEVKKPGASVKVSCKASGYTFTNYGISWVRQAPGQGLEWMGWISPYNGNTNYAQKLQGRVTMTTDTSTSTAYMELRNLRSDDTAVYYCARYWDSGYAYDEWGQGTLVTVSSTSGQAGQHHHHHHGAYPYDVPDYAS :: 144
EXT017-17 scFv phage clone (scFv, fusion to the phage coat protein not described; also called EXT017-17 phage; phage clone #17) scFv: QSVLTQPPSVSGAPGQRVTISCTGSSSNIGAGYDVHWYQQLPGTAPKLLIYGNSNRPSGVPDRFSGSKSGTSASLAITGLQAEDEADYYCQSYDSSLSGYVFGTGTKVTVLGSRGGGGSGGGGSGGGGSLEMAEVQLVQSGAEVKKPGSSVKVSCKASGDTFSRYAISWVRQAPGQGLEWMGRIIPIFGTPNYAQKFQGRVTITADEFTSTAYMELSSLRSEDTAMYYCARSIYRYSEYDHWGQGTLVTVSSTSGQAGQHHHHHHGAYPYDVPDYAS :: 144
EXT017-20 scFv phage clone (scFv, full-length scFv with His+HA tags; also called EXT017-20 phage) scFv: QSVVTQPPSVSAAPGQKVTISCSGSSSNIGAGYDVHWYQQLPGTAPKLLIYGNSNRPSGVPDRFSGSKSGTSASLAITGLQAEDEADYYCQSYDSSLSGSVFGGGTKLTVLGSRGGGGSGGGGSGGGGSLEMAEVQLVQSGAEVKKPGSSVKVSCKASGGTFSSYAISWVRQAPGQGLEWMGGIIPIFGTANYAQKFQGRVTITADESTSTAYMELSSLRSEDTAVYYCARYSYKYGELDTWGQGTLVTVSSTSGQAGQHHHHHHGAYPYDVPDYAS :: 139
